Data origin: patent US9145392B2

Experimental system: P70S6K (T412E mutant) (Homo sapiens (Human), UniProt P23443, T412E)
Sequence (P23443 whole entry T412E): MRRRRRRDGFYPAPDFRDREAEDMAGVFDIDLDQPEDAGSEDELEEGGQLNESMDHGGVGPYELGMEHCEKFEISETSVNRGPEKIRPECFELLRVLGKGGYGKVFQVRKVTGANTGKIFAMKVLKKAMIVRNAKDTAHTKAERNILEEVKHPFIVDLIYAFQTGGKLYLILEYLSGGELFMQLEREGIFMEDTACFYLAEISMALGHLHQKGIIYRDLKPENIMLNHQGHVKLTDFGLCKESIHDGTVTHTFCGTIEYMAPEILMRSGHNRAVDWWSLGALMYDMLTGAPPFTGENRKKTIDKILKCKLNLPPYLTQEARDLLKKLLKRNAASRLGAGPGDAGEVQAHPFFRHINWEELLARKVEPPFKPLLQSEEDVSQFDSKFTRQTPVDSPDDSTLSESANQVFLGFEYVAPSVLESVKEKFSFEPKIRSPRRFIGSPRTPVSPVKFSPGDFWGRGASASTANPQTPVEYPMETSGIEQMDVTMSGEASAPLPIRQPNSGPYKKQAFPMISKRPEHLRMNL
Assay details: P70S6K enzyme assay
Format: biochemical
Condition label: read-out: IC50 p70S6K

{"columns": ["Smiles representation", "U", "IC50"],
 "data": [
  ["Cc1cc(-c2cn(CCN3CCC3)c(C3CCN(c4ncnc(N)c4C#N)CC3)n2)ccc1F", "nM", 0.7],
  ["NC(=O)c1c(N)ncnc1N1CCC(c2nc(-c3ccc(F)c(C(F)(F)F)c3)cn2CCO)CC1", "nM", 1.6],
  ["CC(C)(C)c1cc(-c2cn(CCN3CCC3)c(C3CCN(c4ncnc(N)c4C(N)=O)CC3)n2)ccn1", "nM", 5.5],
  ["CCc1c(N)ncnc1N1CCC(c2nc(-c3ccc(C(F)(F)F)c(F)c3)cn2CCN2CCCC2)CC1", "nM", 13],
  ["Cn1cc(-c2ccc(F)c(C(F)(F)F)c2)nc1C1CCN(c2ncnc(N)c2-c2ccc(CN)cc2)CC1", "nM", 4.2]
]}

====

Experimental system: His-AKT (Full Length) (Homo sapiens (Human), UniProt P31749)
Sequence (P31749 whole entry): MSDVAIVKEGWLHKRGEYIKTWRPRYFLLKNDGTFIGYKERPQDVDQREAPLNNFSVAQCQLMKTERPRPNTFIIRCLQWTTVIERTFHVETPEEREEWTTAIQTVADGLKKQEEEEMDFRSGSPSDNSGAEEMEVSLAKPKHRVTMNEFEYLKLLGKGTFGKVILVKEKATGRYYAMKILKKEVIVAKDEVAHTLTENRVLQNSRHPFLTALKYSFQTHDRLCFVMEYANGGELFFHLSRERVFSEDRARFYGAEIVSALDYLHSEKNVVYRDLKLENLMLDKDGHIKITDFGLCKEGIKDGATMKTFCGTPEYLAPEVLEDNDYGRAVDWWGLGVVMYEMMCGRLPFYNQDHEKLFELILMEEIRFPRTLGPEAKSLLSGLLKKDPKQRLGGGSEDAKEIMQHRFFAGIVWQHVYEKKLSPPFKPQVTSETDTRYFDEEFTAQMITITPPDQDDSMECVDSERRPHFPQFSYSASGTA
Assay details: AKT enzyme assay
Assay type: biochemical
Condition label: read-out: IC50 AKT
Catalogue of molecules with associated IC50
Metric name: IC50

{"columns": ["Smiles representation", "Test result"],
 "data": [
  ["C=Cc1c(N)ncnc1N1CCC(c2nc(-c3ccc(F)c(C(F)(F)F)c3)cn2CCN(C)C)CC1", "7.9 nM"],
  ["Nc1ncnc(N2CCC(c3nc(-c4ccc(Cl)c(F)c4)cn3CCN3CCCC3)CC2)c1Br", "16 nM"],
  ["Nc1ncnc(N2CCC(c3nc(-c4cccc(C(F)(F)F)c4)cn3CCN3CCCC3)CC2)c1Br", "4.2 nM"],
  ["N#Cc1c(N)ncnc1N1CCC(c2nc(-c3ccnc(C4CC4)c3)cn2CCN2CCC2)CC1", "23 nM"],
  ["CCc1c(N)ncnc1N1CCC(c2nc(-c3ccc(F)c(OC)c3)cn2CCN2CCC2)CC1", "4.8 nM"]
]}

====

Experimental system: P70S6K (T412E mutant) (Homo sapiens (Human), UniProt P23443, T412E)
Assay details: P70S6K enzyme assay
Type: biochemical
Condition label: read-out: IC50 p70S6K

{"columns": ["Smiles representation", "U", "Comparison sign", "IC50"],
 "data": [
  ["N#Cc1c(N)ncnc1N1CCC(c2nc(-c3cccc(S(N)(=O)=O)c3)cn2CCN2CCC2)CC1", "nM", ">", 10000],
  ["NC(=O)c1c(N)ncnc1N1CCC(c2nc(-c3cc[nH]c(=O)c3)cn2CCN2CCC2)CC1", "nM", "=", 2700],
  ["CN(C)CCn1cc(-c2ccc(F)c(C(F)(F)F)c2)nc1C1CCN(c2ncnc(N)c2-c2ccncc2)CC1", "nM", "=", 3],
  ["N#Cc1c(N)ncnc1N1CCC(c2nc(-c3ccc(F)c(C(F)(F)F)c3)cn2C2CCNCC2)CC1", "nM", "=", 0.9]
]}

====

Experimental system: P70S6K (T412E mutant) (Homo sapiens (Human), UniProt P23443, T412E)
Assay details: P70S6K enzyme assay
Format: biochemical
Condition label: read-out: IC50 p70S6K
Metric name: IC50 (nM)

{"columns": ["Smiles representation", "Metric name", "Test result"],
 "data": [
  ["Cc1cc(-c2cn(CCN(C)C)c(C3CCN(c4ncnc(N)c4C(N)=O)CC3)n2)ccc1F", "IC50", 4],
  ["CCc1c(N)ncnc1N1CCC(c2nc(-c3ccc(F)c(Cl)c3)cn2CCN2CCC2)CC1", "IC50", 3.9],
  ["Nc1ncnc(N2CCC(c3nc(-c4cccc(F)c4)cn3CCN3CCCC3)CC2)c1C1CCC1", "IC50", 4]
]}
